Biological target: T1, HLA-A02.01 (human)
T1 construct: Purified class I MHC
Experiment: competition with radiolabeled reference peptide, purified MHC I
RECORDED METRIC: pIC50
pIC50 (log units): -log10 of the concentration in mol/L.

MNWRPILTII (also called TP53, R248W) :: 5.99
SMLTDSLFL (also called VHL, QCIL) :: 7.51
ALMSAMTTS (also called TGFBR2(-1)) :: 6.86
VMSDTTYKI (also called TTK(-1)) :: 7.71
SLVRLSSCV (also called TGFBR2(-1)) :: 7.52
SMNRRPILT (also called TP53, G245S) :: 5.42

So, NSFEVHVCA (also called TP53, R273H) ? Its pIC50 was 6.30

pIC50 for GMNQRPILTI (also called TP53, R248Q) is 6.15
